Study target: T1, human Gal10-His (human, UniProt Q05315 2-142, limits assumed)
T1 construct: also called hGal10-His; human Gal10-His tagged; not shown: His tag
T1 sequence: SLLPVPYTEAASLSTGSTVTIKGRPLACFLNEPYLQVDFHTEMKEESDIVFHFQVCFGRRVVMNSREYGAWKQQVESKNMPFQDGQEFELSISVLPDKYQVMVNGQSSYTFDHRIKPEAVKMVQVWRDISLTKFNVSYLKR
Protocol details: SPR Biacore 3000, purified hFab (2 conc.) on Gal10-His captured by anti-His CM5
Reported values of kon for individual entries
Quick note: unit goes after the number.

g24F02 (human Fab) (Fab, V domains shown, Human Fab backbone (human CH1, human lambda CL); also called germlined 24F02) VH: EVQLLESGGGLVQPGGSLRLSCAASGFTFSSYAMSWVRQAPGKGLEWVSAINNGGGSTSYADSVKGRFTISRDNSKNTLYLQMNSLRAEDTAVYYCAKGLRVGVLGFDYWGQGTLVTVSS VL: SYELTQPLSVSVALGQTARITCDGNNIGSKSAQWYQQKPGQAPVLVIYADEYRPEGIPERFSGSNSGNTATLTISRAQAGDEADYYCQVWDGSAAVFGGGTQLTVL = 830000 M⁻¹ s⁻¹

Tell me the measured kon of g20H09 (Fab) (Fab, V domains shown, same VH/VL) VH: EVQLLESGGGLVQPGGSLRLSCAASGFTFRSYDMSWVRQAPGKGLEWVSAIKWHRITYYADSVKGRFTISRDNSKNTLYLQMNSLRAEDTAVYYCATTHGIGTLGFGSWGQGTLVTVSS VL: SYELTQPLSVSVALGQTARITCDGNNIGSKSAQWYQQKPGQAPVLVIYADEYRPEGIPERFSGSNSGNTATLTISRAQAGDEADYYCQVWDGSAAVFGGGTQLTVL , please. 860000 M⁻¹ s⁻¹

Tell me the measured kon of g24F02_N53A (human Fab) (Fab, V domains shown, Human Fab backbone: human CH1 and human lambda constant domain (pUPEX vectors); also called g24F02_N53A_2W) VH: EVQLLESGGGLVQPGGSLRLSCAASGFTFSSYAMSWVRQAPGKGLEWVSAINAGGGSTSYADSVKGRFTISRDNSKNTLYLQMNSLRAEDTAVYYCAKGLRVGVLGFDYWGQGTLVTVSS VL: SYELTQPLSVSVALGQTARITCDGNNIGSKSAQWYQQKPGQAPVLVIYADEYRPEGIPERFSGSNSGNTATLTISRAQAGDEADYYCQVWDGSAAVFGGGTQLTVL , please. 710000 M⁻¹ s⁻¹
